Source of measurements: patent US20230116733A1

Target: UniProt Q92519
Sequence (Q92519 whole entry): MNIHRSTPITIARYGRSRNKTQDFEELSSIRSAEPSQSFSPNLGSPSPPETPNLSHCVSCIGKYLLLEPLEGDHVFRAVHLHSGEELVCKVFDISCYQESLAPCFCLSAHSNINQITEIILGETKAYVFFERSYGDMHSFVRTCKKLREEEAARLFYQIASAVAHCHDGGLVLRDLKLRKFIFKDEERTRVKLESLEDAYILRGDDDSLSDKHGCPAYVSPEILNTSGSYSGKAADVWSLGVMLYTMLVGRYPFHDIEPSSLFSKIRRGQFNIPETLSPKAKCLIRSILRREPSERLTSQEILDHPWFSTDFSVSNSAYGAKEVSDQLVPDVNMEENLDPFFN
Assay: TRIB2 kinase activity assay (Eurofins, 33P-ATP filter binding)
Format: biochemical
Set-up: purchased Eurofins
Structures can show the parent of a compound that is named as a salt.
# reported IC50; entries follow
READOUT: IC50

compound="O=C(Nc1ccncc1)c1nn(C2CCCCO2)c2ccc(-c3cccnc3F)cc12 (stereo not drawn)" readout=IC50 result="10 to 100 nM"
compound="O=C(Nc1ccncc1)c1n[nH]c2ccc(-c3cnn(C4CCNCC4)c3)cc12 [Compound 73, hydrochloride]" readout=IC50 result="10 to 100 nM"
compound=O=Cc1cc2c(cc1-c1ccc3[nH]nc(C(=O)Nc4ccncc4)c3c1)OCO2 readout=IC50 result="10 to 100 nM"
